measurementTarget: T1, human PRLR on cells (endogenous on T47D, T47D#11, MCF7); introduced in HEK293/hPRLR/STAT5-Luc, 293/hPRLR, … (human, UniProt P16471 25-622)
T1 sequence: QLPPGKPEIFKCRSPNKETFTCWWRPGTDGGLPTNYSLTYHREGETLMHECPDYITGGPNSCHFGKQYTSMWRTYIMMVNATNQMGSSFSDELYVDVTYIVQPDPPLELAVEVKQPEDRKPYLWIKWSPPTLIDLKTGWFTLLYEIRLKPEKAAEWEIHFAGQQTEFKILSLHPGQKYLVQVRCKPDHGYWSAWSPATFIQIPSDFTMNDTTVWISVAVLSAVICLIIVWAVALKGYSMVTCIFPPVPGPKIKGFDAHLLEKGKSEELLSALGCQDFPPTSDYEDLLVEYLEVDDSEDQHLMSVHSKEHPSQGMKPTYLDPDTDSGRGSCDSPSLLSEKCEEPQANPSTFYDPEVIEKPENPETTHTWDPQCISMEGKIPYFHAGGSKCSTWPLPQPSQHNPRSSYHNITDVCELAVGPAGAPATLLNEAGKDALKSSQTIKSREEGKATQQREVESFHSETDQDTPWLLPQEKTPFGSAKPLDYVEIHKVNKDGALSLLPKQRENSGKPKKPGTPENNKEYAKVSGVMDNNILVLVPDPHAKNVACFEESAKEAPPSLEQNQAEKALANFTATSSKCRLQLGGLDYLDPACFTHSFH
testDescription: cell-based or functional assay
measuredMetric: % Internalization relative to Control I (T47D cells, imaging) (%)
State just the number; it will be interpreted in %.

Past entries and their recorded results:
[[record]]
binder = "H1H6803P (antibody, human IgG1, V domains shown, human IgG1 Fc (H1H)) VH: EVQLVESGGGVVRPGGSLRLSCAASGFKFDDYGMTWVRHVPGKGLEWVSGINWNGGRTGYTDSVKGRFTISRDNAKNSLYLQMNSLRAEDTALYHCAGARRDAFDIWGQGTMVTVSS VL: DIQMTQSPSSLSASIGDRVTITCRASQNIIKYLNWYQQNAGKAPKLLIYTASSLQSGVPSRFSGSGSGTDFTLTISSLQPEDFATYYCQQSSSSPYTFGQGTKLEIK"
valueunit = "%"
resultnumber = 190

[[record]]
binder = "H1H6953N (antibody, human IgG1, V domains shown, also called H1M6953N) VH: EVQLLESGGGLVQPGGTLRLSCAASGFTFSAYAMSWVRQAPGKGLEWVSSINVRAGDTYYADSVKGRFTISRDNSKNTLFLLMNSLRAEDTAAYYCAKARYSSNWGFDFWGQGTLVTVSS VL: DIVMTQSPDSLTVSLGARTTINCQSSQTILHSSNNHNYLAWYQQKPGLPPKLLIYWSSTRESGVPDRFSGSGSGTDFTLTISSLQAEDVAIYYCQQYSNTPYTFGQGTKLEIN"
valueunit = "%"
resultnumber = 154

[[record]]
binder = "H1H6800P (antibody, human IgG1, V domains shown, human IgG1 Fc (H1H)) VH: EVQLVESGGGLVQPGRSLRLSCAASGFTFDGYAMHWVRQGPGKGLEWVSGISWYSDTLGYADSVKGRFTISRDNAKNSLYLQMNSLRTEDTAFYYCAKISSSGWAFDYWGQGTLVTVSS VL: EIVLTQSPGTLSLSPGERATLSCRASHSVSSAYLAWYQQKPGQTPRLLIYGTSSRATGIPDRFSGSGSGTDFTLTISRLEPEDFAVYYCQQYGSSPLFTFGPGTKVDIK"
valueunit = "%"
resultnumber = 198


Prompt line: # input binder: H1H6976N (antibody, human IgG1, V domains shown, also called H2M6976N) VH: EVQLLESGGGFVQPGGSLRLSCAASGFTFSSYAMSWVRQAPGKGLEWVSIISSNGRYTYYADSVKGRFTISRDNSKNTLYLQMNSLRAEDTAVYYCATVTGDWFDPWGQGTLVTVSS VL: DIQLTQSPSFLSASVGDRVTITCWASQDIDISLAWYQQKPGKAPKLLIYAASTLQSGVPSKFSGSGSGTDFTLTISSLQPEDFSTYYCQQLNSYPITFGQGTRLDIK ; wanted: its % Internalization relative to Control I (T47D cells, imaging)
Response line: 170

Sourced from patent US20180185504A1
